Quick reference for EC50 at 72 h among some molecules
test: Cellular toxicity, MTT assay, MRC-5; assay type: cell-based; conditions: human, maximal concentration 200 µM, read-out: EC50 MRC-5 Cell Line (cytotoxicity)
measurement.name: EC50 at 72 h (µM)

> print(dat)
                                test.smiles  measurement.name  uom  readout.value
1  CCCCCCCC[Se][C@@H]1[C@H](O)[C@@H](O)[C@H](O)[C@H]2COC(=O)N21      EC50 at 72 h   µM           94.3
2  O=C1OC[C@@H]2[C@@H](O)[C@H](O)[C@@H](O)[C@@H]([Se]c3ccccc3)N12      EC50 at 72 h   µM            172
3  CCCCCCCCCCCC[Se][C@@H]1[C@H](O)[C@@H](O)[C@H](O)[C@H]2COC(=O)N21      EC50 at 72 h   µM           31.2

====

experiment: Cellular toxicity, MTT assay, THP-1; format: cell-based; conditions: human, THP-1 cells differentiated to macrophages with PMA, maximal concentration 200 µM, read-out: EC50 THP-1 Cell Line (cytotoxicity)
measurement.name: EC50 at 72 h (µM)

> print(dat)
                                   compound  readout.value
1  CCCCCCCCN[C@@H]1[C@H](O)[C@@H](O)[C@H](O)[C@H]2COC(=O)N21            209
2  CCCCCCCCCCCCN[C@@H]1[C@H](O)[C@@H](O)[C@H](O)[C@H]2COC(=O)N21            122
3  CCCCCCCCS[C@@H]1[C@H](O)[C@@H](O)[C@H](O)[C@H]2COC(=O)N21            122
4  CCCCCCCCCCCCS[C@@H]1[C@H](O)[C@@H](O)[C@H](O)[C@H]2COC(=O)N21           70.5
5  CCCCCCCCCCCCCCCCOP(=O)([O-])OCC[N+](C)(C)C [Miltefosine, reference compound]           26.9

====

assay: Cellular toxicity, MTT assay, THP-1; type: cell-based; conditions: human, maximal concentration 200 µM, read-out: EC50 THP-1 Cell Line (cytotoxicity)
measurement.name: EC50 at 72 h

> print(dat)
                                   compound  measurement.name  readout.value
1  CCCCCCCC[Se][C@@H]1[C@H](O)[C@@H](O)[C@H](O)[C@H]2COC(=O)N21 [Compound 9]      EC50 at 72 h       > 200 µM
2  O=C1OC[C@@H]2[C@@H](O)[C@H](O)[C@@H](O)[C@@H]([Se]c3ccccc3)N12 [Compound 8]      EC50 at 72 h       > 200 µM
3  CCCCCCCCCCCC[Se][C@@H]1[C@H](O)[C@@H](O)[C@H](O)[C@H]2COC(=O)N21 [Compound 10]      EC50 at 72 h        84.2 µM

====

Tested on: WiDr (colon) human solid tumor cell line
Assay: Antiproliferative SRB assay (HTS), WiDr
Format: cell-based
Conditions: 48 h
Source text: All reagents were used as purchased from commercial suppliers without further purification. The human solid tumor cell lines used in this study were: A549, SW1573 (lung), HBL-100, T-47D (breast), HeLa (cervix) and WiDr (colon). These cell lines were a kind gift from Prof. G.J. Peters (VU Medical Center, Amsterdam, The Netherlands). […]
measurement.name: GI50 (µM)

> print(dat)
                                test.smiles  readout.relation  readout.value
1  CCCCCCCC[Se][C@@H]1[C@H](O)[C@@H](O)[C@H](O)[C@H]2COC(=O)N21                 =             64
2  CCCCCCCCCCCC[Se][C@@H]1[C@H](O)[C@@H](O)[C@H](O)[C@H]2COC(=O)N21                 =             22
3  CCCCCCCCS[C@@H]1[C@H](O)[C@@H](O)[C@H](O)[C@H]2COC(=O)N21                 =             89
4  CCCCCCCCCCCCN[C@@H]1[C@H](O)[C@@H](O)[C@H](O)[C@H]2COC(=O)N21                 =             22
5  CCCCCCCCCCCCS[C@@H]1[C@H](O)[C@@H](O)[C@H](O)[C@H]2COC(=O)N21                 =             18
6  O=C1OC[C@@H]2[C@@H](O)[C@H](O)[C@@H](O)[C@@H]([Se]c3ccccc3)N12                 >            100
7  CCCCCCCCN[C@@H]1[C@H](O)[C@@H](O)[C@H](O)[C@H]2COC(=O)N21                 >            100
